Reference for the values: patent US20080234198A1

Biological target: T1, rat VPAC1 receptor (rat, UniProt P30083 31-459)
T1 sequence (looked up): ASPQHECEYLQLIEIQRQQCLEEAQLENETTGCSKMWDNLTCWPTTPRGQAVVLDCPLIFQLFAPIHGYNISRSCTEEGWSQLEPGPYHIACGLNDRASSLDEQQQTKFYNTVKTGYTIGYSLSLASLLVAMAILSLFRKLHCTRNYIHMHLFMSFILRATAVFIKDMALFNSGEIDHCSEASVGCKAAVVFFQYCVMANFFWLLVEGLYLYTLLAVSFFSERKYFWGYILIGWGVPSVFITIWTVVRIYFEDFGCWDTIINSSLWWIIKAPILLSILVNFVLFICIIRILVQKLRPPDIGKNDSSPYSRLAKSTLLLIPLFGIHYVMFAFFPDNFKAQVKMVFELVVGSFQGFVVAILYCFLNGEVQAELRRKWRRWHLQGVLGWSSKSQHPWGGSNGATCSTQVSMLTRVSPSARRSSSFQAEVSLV
Assay: cell-based or functional assay
MEASURED ENDPOINT: Rat VPAC1 Receptor: DiscoveRx: (EC50; nM)

Example results:
[[record]]
binder = "HSDAVFTEQYTXLRXQVAAXXYLQSXXXGGPSSGAPPPS (C6-HSDAVFTEQY(OMe)TOrnLRAibQVAAAibOrnYLQSK(WPEG40K)OrnOrnGGPSSGAPPPS-NH2) [P535]"
recorded_measurement = "> 1000 nM"

[[record]]
binder = "HSDAVFTEQYTXLRXQVAAXXYLCSIXXGGPSSGAPPPC (C6-HSDAVFTEQY(OMe)TOrnLRAibQVAAAibOrnYLC(PEG20K)SIOrnOrnGGPSSGAPPPC(PEG20K)-NH2) [P501]"
recorded_measurement = "> 1000 nM"


// next item, Rat VPAC1 Receptor: DiscoveRx: (EC50; nM) requested
Looking for the measured Rat VPAC1 Receptor: DiscoveRx: (EC50; nM) of HSDAVFTEQYTXXRXQVAAXXYLQSIXXGGPSSGAPPPS (C6-HSDAVFTEQY(OMe)TOrnK(CO(CH2)2SPEG20K)RAibQVAAAibOrnYLQSIOrnOrnGGPSSGAPPPS-NH2) [P470] , can you help? > 1000 nM
